# studySystem: Bifunctional arginine demethylase and lysyl-hydroxylase JMJD6 (Homo sapiens, UniProt Q6NYC1)
# methodNotes: Inhibition of His-tagged JMJD6 (unknown origin) expressed in Escherichia coli BL21 (DE3) assessed as decrease in demethylase activity by measuring release of formaldehyde using core histone as substrate preincubated with enzyme for 10 mins followed by incubation with substrate for 1 hr measured following 2 hrs incubation with ammonium acetate/acetoacetanilide by fluorescence based analysis
measuredProperty: IC50 (nM)
Give a bare numeral; the unit nM is implied.

INPUT: I would be grateful if you could share the reported IC50 for `Cc1ccc2oc(=O)c(-c3nc4cnccc4[nH]3)cc2c1` .
OUTPUT: 220

Origin of the recorded values: ChEMBL document CHEMBL4312042
